Data origin, for the record: patent US8846638B2

# Tested on: HCV 1b genotype replicon (strain Con1, SGR 11-7 cell line)
# assay_explanation: HCV replicon assay, qRT-PCR, genotype 1b (SGR 11-7 cells)
# Format: cell-based
# measurement_setup: Hepatitis C virus; Genotype-1b replicon, HCV RNA by qRT-PCR normalized to GAPDH RNA
pEC50: −log10 of the molar value.
For each of the compounds below, state its pEC50.

# batch: return pEC50 for each of the 6 compounds below
1. C[C@@H]1NP(=O)(Oc2cccc3ccccc23)OCC2OC(n3cnc4c(nc(N)nc43)OCCCCC(F)(F)COC1=O)[C@](C)(O)[C@@H]2O (some centres unmarked)
2. C[C@@H]1NP(=O)(Oc2ccccc2)OCC2OC(n3cnc4c(nc(N)nc43)OCCCCCCCCOC1=O)[C@](C)(O)[C@@H]2O (some centres unmarked)
3. C[C@@H]1NP(=O)(Oc2cccc3ccccc23)OCC2OC(n3cnc4c(nc(N)nc43)OCCCCCCCOC1=O)[C@](C)(O)[C@@H]2O (some centres unmarked)
4. C[C@@H]1NP(=O)(Oc2cccc3ccccc23)OCC2OC(n3cnc4c(nc(N)nc43)OCCC=CCCCOC1=O)[C@](C)(O)[C@@H]2O (some centres unmarked)
5. CC(C)C[C@@H]1NP(=O)(Oc2cccc3ccccc23)OCC2OC(n3cnc4c(nc(N)nc43)OCCCCCCCOC1=O)[C@](C)(O)[C@@H]2O (some centres unmarked)
6. C[C@@H]1NP(=O)(Oc2cccc3ccccc23)OCC2OC(n3cnc4c(nc(N)nc43)OCCCCCOCCCOC1=O)[C@](C)(O)[C@@H]2O (some centres unmarked)

### Response
6.00 to 7.00
6.00 to 7.00
6.00 to 7.00
6.00 to 7.00
< 6.00
< 6.00

# batch: return pEC50 for each of the 2 compounds below
1. C[C@@H]1NP(=O)(Oc2cccc3ccccc23)OCC2OC(n3cnc4c(nc(N)nc43)OCCCCCCOC1=O)[C@](C)(O)[C@@H]2O (some centres unmarked)
2. C[C@@H]1NP(=O)(Oc2ccccc2)OCC2OC(n3cnc4c(nc(N)nc43)OCCCCCCCOC1=O)[C@](C)(O)[C@@H]2O (some centres unmarked)

### Response
1: 6.00 to 7.00; 2: 6.00 to 7.00
